The entries below come with measured growth values attached.
Test system: EKVX NSCLC
assay name: NCI-60 one-dose screen, 48 h (100 = growth as untreated, 0 = no growth, -100 = all killed)
experimental conditions: 10 µM unless noted
This is part of a sample that, as a whole, favours compounds with a hit. Of some 83,000 tested, about 20% had one in any assay.
Your answer is read as %, so omit the unit and give the number.

Some entries whose results are on file:
CC(=O)c1c(C)nc(SCC(=O)Nc2ccc(Cl)cc2)n1-c1ccc(Cl)cc1; 95.5
CN(C)CCCn1c2nc(=O)[nH]c(=O)c-2nc2cc(Cl)c(Cl)cc21; 103
COc1cc2c(cc1OCCCOC1=C=C=C(c3ccc4c(c3)c3cc(-c5ccc(OCCCOc6cc7c(cc6OC)C(=O)N6CCC[C@H]6C=N7)cc5)ccc3n4S(=O)(=O)c3ccc(C)cc3)C=C1)N=C[C@@H]1CCCN1C2=O; 94.5

# evaluate next
For this compound ( COc1ccc(-c2cc(=O)c3c(O)cc(O)cc3o2)cc1 ), measured growth is 103
